Test Details: Body weight / toxicity of a single intraperitoneal injection in HCT-116 colon tumor-bearing nude mice
Run Conditions: Day 28; single IP injection (QD×1); D1 and D2 400 mg/kg, D3 350 mg/kg, D4 300 mg/kg
The entries below are paired with their reported Average rate of weight change of the animals.
Please reply with the bare figure in % and do not write the unit itself.

Observe how each entry below is paired with its result.
Average rate of weight change of the animals measured on CCCCOC(=O)Nc1ccn(C2OC(COC(=O)CCCC(=O)OC[C@H]3O[C@@H](n4ccc(NC(=O)OCCCC)nc4=O)C(F)(F)[C@@H]3OC(=O)OCCCC)C(OC(=O)OCCCC)C2(F)F)c(=O)n1 (stereo in doubt) [Compound D1] = 15.14

Average rate of weight change of the animals measured on CCCCOC(=O)Nc1ccn([C@H]2O[C@@H](COC(=O)CCC(=O)OC[C@H]3O[C@@H](n4ccc(NC(=O)OCCCC)nc4=O)C(F)(F)[C@@H]3O)[C@H](O)C2(F)F)c(=O)n1 (stereo in doubt) [Compound D2] = 1.57

---
Average rate of weight change of the animals measured on CCCCOC(=O)Nc1ccn(C2OC(COC(=O)CCC(=O)OC[C@H]3O[C@@H](n4ccc(NC(=O)OCc5ccccc5)nc4=O)C(F)(F)[C@@H]3O)C(O)C2(F)F)c(=O)n1 (stereo in doubt) [Compound D4] = 8.62

Average rate of weight change of the animals measured on O=C(CCCC(=O)OC[C@H]1O[C@@H](n2ccc(NC(=O)OCc3ccccc3)nc2=O)C(F)(F)[C@@H]1O)OC[C@H]1O[C@@H](n2ccc(NC(=O)OCc3ccccc3)nc2=O)C(F)(F)[C@@H]1O [Compound D3] = 11.44

----------
Test Details: Body weight / toxicity of a single intraperitoneal injection in HCT-116 colon tumor-bearing nude mice
Run Conditions: Day 18; single IP injection (QD×1); D1 and D2 400 mg/kg, D3 350 mg/kg, D4 300 mg/kg; Mean±SEM
The entries below are paired with their reported Average weight of the animals.
Please reply with the bare figure in g and do not write the unit itself.

Average weight of the animals measured on CCCCOC(=O)Nc1ccn(C2OC(COC(=O)CCCC(=O)OC[C@H]3O[C@@H](n4ccc(NC(=O)OCCCC)nc4=O)C(F)(F)[C@@H]3OC(=O)OCCCC)C(OC(=O)OCCCC)C2(F)F)c(=O)n1 (stereo in doubt) [Compound D1] = 23.30

---
Average weight of the animals measured on O=C(CCCC(=O)OC[C@H]1O[C@@H](n2ccc(NC(=O)OCc3ccccc3)nc2=O)C(F)(F)[C@@H]1O)OC[C@H]1O[C@@H](n2ccc(NC(=O)OCc3ccccc3)nc2=O)C(F)(F)[C@@H]1O = 22.58

Average weight of the animals measured on CCCCOC(=O)Nc1ccn([C@H]2O[C@@H](COC(=O)CCC(=O)OC[C@H]3O[C@@H](n4ccc(NC(=O)OCCCC)nc4=O)C(F)(F)[C@@H]3O)[C@H](O)C2(F)F)c(=O)n1 (stereo in doubt) [Compound D2] = 21.63

Average weight of the animals measured on CCCCOC(=O)Nc1ccn(C2OC(COC(=O)CCC(=O)OC[C@H]3O[C@@H](n4ccc(NC(=O)OCc5ccccc5)nc4=O)C(F)(F)[C@@H]3O)C(O)C2(F)F)c(=O)n1 (stereo in doubt) = 21.95
